assay: Oral pharmacokinetics in Sprague Dawley rats (plasma, brain, CSF); assay type: in vivo; settings: Sprague-Dawley, rat, plasma, po, 10 mg/kg, per os, 10 mg/kg, plasma, read-out: Cmax
# Cmax values compiled below
assay readout: Cmax (ng/mL)

molecule: CC(C)C(=O)N1CCC2(CCCN2C(=O)C(C)C)C1=O (single isomer, unassigned)
meas value: 4620
--
molecule: O=C1NCCCCC12CCCCN2 (single isomer, unassigned) [AZ, 1,8-diazaspiro[5.6]dodecan-7-one]
meas value: 29100
--
molecule: O=C1NCCCC12CCCCN2 (single isomer, unassigned) [AX, 1,8-diazaspiro[5.5]undecan-7-one]
meas value: 2560
--
molecule: CN1CC=CCC2(CCCN2Cc2ccccc2)C1=O (single isomer, unassigned)
meas value: 23.3
